Hey, just so you know, these numbers are from patent US9795139B2.

# Test system: Yellow Fever Mosquito (Aedes aegypti, AEDSAE)
# Type: in vivo
# Cond: about 1 day-old larvae, 96-well plate from 4000 ppm DMSO master, 3 days at room temperature

[
  {
    "Compound": "N#CC1CCC(NC(=O)c2cc(NC(=O)[C@H]3[C@H](c4cc(Cl)c(Cl)c(Cl)c4)C3(Cl)Cl)ccc2Cl)C1 (relative stereo)",
    "YFM % Control (or Mortality) rating": "A (80-100)"
  },
  {
    "Compound": "N#CC1CCC(NC(=O)c2cc(NC(=O)[C@H]3[C@H](c4cc(Cl)cc(Cl)c4)C3(Cl)Cl)ccc2Cl)C1 (relative stereo)",
    "YFM % Control (or Mortality) rating": "A (80-100)"
  },
  {
    "Compound": "O=C1CC(NC(=O)c2cc(NC(=O)[C@H]3[C@H](c4cc(Cl)cc(Cl)c4)C3(Cl)Cl)ccc2Cl)C1 (relative stereo)",
    "YFM % Control (or Mortality) rating": "A (80-100)"
  }
]

* * *

# System: Yellow Fever Mosquito (Aedes aegypti, AEDSAE)
# Assay type: in vivo
# Cond: about 1 day-old larvae, 96-well plate from 4000 ppm DMSO master, 3 days at room temperature
Readout: YFM % Control (or Mortality) rating

[
  {
    "Compound": "N#CC1(NC(=O)c2cc(NC(=O)[C@H]3[C@H](c4cc(Cl)c(Cl)c(Cl)c4)C3(Cl)Cl)ccc2Cl)CC1 [Molecule F63]",
    "Target Under Test": "Yellow Fever Mosquito (Aedes aegypti, AEDSAE)",
    "Result": "A (80-100)"
  },
  {
    "Compound": "N#CC1(NC(=O)c2cc(NC(=O)[C@H]3[C@H](c4cc(Cl)cc(Cl)c4)C3(Cl)Cl)ccc2Cl)CCC1 (relative stereo)",
    "Target Under Test": "Yellow Fever Mosquito (Aedes aegypti, AEDSAE)",
    "Result": "A (80-100)"
  }
]

* * *

Provide the recorded mortality at 50 µg/cm2 for the entries that follow.
# Tested on: Beet Armyworm (Spodoptera exigua, LAPHEG)
# Protocol Details: Bioassay on Beet Armyworm (BAW), 128-well diet tray assay
# Format: in vivo
# Cond: 168 h, 50 μg/cm^2 on artificial diet, second instar larvae, 25° C., five to seven days, average of eight wells, read-out: BAW % Control (or Mortality) rating

[
  {
    "Compound": "COC(=O)C1(NC(=O)c2cc(NC(=O)[C@H]3[C@H](c4cc(Cl)cc(Cl)c4)C3(Cl)Cl)ccc2Cl)CCCC1 (relative stereo) [PF33]",
    "Readout": "mortality at 50 µg/cm2",
    "Result": "0 to 50%"
  },
  {
    "Compound": "O=C(NC1CC(F)(F)C1)c1cc(NC(=O)[C@@H]2[C@@H](c3cc(Cl)cc(Cl)c3)C2(Cl)Cl)ccc1Cl [Molecule F74]",
    "Readout": "mortality at 50 µg/cm2",
    "Result": "50 to 100%"
  },
  {
    "Compound": "O=C(NC1CS(=O)(=O)C1)c1cc(NC(=O)[C@H]2[C@H](c3cc(Cl)c(Cl)c(Cl)c3)C2(Cl)Cl)ccc1Cl (relative stereo) [Molecule F58]",
    "Readout": "mortality at 50 µg/cm2",
    "Result": "50 to 100%"
  },
  {
    "Compound": "Cc1cc([C@H]2[C@H](C(=O)Nc3ccc(Cl)c(C(=O)NC4CC(F)(F)C4)c3)C2(Cl)Cl)cc(Cl)c1Cl (relative stereo) [Molecule F50]",
    "Readout": "mortality at 50 µg/cm2",
    "Result": "50 to 100%"
  }
]

Q: Returns the measured mortality at 50 µg/cm2 for the input compound. Input: O=C(NC1CCNC1=O)c1cc(NC(=O)C2C(c3cc(Cl)cc(Cl)c3)C2(Cl)Cl)ccc1Cl (centres unmarked) [PF29]
Result: 50 to 100%

* * *

# Tested on: Beet Armyworm (Spodoptera exigua, LAPHEG)
# Protocol Details: Bioassay on Beet Armyworm (BAW), 128-well diet tray assay
# Assay type: in vivo
# Cond: 168 h, 50 μg/cm^2 on artificial diet, second instar larvae, 25° C., five to seven days, average of eight wells, read-out: BAW % Control (or Mortality) rating
# Description: Certain molecules disclosed in this document were tested against BAW and CL using procedures described in the following examples. In the reporting of the results, the “BAW & CL Rating Table” was used (See Table Section). Bioassays on BAW were conducted using a 128-well diet tray assay. […] Percent mortality was recorded for the larvae in each well; activity in the eight wells was then averaged. […]
Readout: mortality at 50 µg/cm2

I'm hoping you can list mortality at 50 µg/cm2 for every compound here, please.
1. CN(C(=O)c1cc(NC(=O)[C@H]2[C@H](c3cc(Cl)cc(Cl)c3)C2(Cl)Cl)ccc1Cl)C1(C#N)CC1 (relative stereo)
2. O=C(NC1CCC1)c1cc(NC(=O)[C@H]2[C@H](c3cc(Cl)cc(Cl)c3)C2(Cl)Cl)ccc1Cl (relative stereo)
3. N#CC1(NC(=O)c2cc(NC(=O)[C@H]3[C@H](c4cc(Cl)c(F)c(Cl)c4)C3(Cl)Cl)ccc2Cl)CC1 (relative stereo)
4. O=C(N[C@@H]1CON(CC(F)(F)F)C1=O)c1cc(NC(=O)C2C(c3cc(Cl)c(Cl)c(Cl)c3)C2(Cl)Cl)ccc1Cl (stereo in doubt)

Result:
50 to 100%
50 to 100%
50 to 100%
50 to 100%

* * *

Provide the recorded mortality at 50 µg/cm2 for the entries that follow.
# Tested on: Cabbage Looper (Trichoplusia ni, TRIPNI)
# Protocol Details: Bioassay on Cabbage Looper (CL), 128-well diet tray assay
# Type: in vivo
# Cond: 168 h, 50 μg/cm^2 on artificial diet, second instar larvae, 25° C., five to seven days, average of eight wells, read-out: CL % Control (or Mortality) rating

Illustrative cases are given below, each with its answer.
[
  {
    "Compound": "CC1(NC(=O)c2cc(NC(=O)[C@H]3[C@H](c4cc(Cl)cc(Cl)c4)C3(Cl)Cl)ccc2Cl)CC1 (relative stereo)",
    "Target Under Test": "Cabbage Looper (Trichoplusia ni, TRIPNI)",
    "Readout": "mortality at 50 µg/cm2",
    "Result": "50 to 100%"
  },
  {
    "Compound": "N#CC1(NC(=O)c2cc(NC(=O)[C@H]3[C@H](c4cc(Cl)cc(Cl)c4)C3(Cl)Cl)ccc2Cl)CC1 (relative stereo)",
    "Target Under Test": "Cabbage Looper (Trichoplusia ni, TRIPNI)",
    "Readout": "mortality at 50 µg/cm2",
    "Result": "50 to 100%"
  },
  {
    "Compound": "C[C@@]1(c2cc(Cl)cc(Cl)c2)[C@H](C(=O)Nc2ccc(Cl)c(C(=O)NC3CC(F)(F)C3)c2)C1(Cl)Cl (relative stereo)",
    "Target Under Test": "Cabbage Looper (Trichoplusia ni, TRIPNI)",
    "Readout": "mortality at 50 µg/cm2",
    "Result": "0 to 50%"
  },
  {
    "Compound": "O=C(NC1CCC(F)(F)CC1)c1cc(NC(=O)[C@H]2[C@H](c3ccc(Cl)c(Cl)c3)C2(Cl)Cl)ccc1Cl (relative stereo)",
    "Target Under Test": "Cabbage Looper (Trichoplusia ni, TRIPNI)",
    "Readout": "mortality at 50 µg/cm2",
    "Result": "50 to 100%"
  },
  {
    "Compound": "O=C(NC1CC(F)(F)C1)c1cc(NC(=O)[C@H]2[C@H](c3ccc(OC(F)(F)F)c(Cl)c3)C2(Cl)Cl)ccc1Cl (relative stereo)",
    "Target Under Test": "Cabbage Looper (Trichoplusia ni, TRIPNI)",
    "Readout": "mortality at 50 µg/cm2",
    "Result": "50 to 100%"
  }
]

Turning now to a further record.
Q: Returns the measured mortality at 50 µg/cm2 for the input compound. Input: N#CC1(NC(=O)c2cc(NC(=O)[C@H]3[C@H](c4cc(Cl)c(F)c(Cl)c4)C3(Cl)Cl)ccc2Cl)CC1 (relative stereo)
Result: 50 to 100%

* * *

# System: Yellow Fever Mosquito (Aedes aegypti, AEDSAE)
# Type: in vivo
# Cond: about 1 day-old larvae, 96-well plate from 4000 ppm DMSO master, 3 days at room temperature
Readout: YFM % Control (or Mortality) rating

Illustrative cases are given below, each with its answer.
[
  {
    "Molecule": "N#CC1(NC(=O)c2cc(NC(=O)[C@H]3[C@H](c4cccc(C(F)F)c4)C3(Cl)Cl)ccc2Cl)CC1 (relative stereo) [Molecule F91]",
    "Target Under Test": "Yellow Fever Mosquito (Aedes aegypti, AEDSAE)",
    "YFM % Control (or Mortality) rating": "A (80-100)"
  },
  {
    "Molecule": "O=C1CCC(NC(=O)c2cc(NC(=O)[C@H]3[C@H](c4cc(Cl)cc(Cl)c4)C3(Cl)Cl)ccc2Cl)CC1 (relative stereo) [Molecule F65]",
    "Target Under Test": "Yellow Fever Mosquito (Aedes aegypti, AEDSAE)",
    "YFM % Control (or Mortality) rating": "A (80-100)"
  },
  {
    "Molecule": "O=C(NC1CC(F)(F)C1)c1cc(NC(=O)[C@H]2[C@H](c3ccc(Cl)c(Cl)c3)C2(Cl)Cl)ccc1Cl (relative stereo) [Molecule F9]",
    "Target Under Test": "Yellow Fever Mosquito (Aedes aegypti, AEDSAE)",
    "YFM % Control (or Mortality) rating": "A (80-100)"
  },
  {
    "Molecule": "O=C(N[C@@H]1CON(CC(F)(F)F)C1=O)c1cc(NC(=O)C2C(c3cc(Cl)c(Cl)c(Cl)c3)C2(Cl)Cl)ccc1Cl (stereo in doubt) [Molecule F80]",
    "Target Under Test": "Yellow Fever Mosquito (Aedes aegypti, AEDSAE)",
    "YFM % Control (or Mortality) rating": "A (80-100)"
  }
]

Q: // map O=C(NC1CCC1)c1cc(NC(=O)[C@H]2[C@H](c3cc(Cl)cc(Cl)c3)C2(Cl)Cl)ccc1Cl (relative stereo) [Molecule F40] to recorded YFM % Control (or Mortality) rating (system: Yellow Fever Mosquito (Aedes aegypti, AEDSAE))
Result: A (80-100)
